Test: NCI Yeast Anticancer Drug Screen. Data for the mlh1 rad18 strain (AID 175)
Conditions: S. cerevisiae mlh1 rad18 strain growth inhibition; at 50.0 µM
This is part of a sample that, as a whole, favours compounds with a hit. Of some 79,000 tested, about 15% had one in any assay. Calls of active or inactive are those of the source. Rule as the data show it: active = growth inhibition above about 70%; inactive = the rest.
Outcomes: class 1 for active, class 0 for inactive

{"columns": ["chemical-structure", "cat"],
 "data": [
  ["O=C1OC(c2ccccc2)=N/C1=C\\c1ccc(F)cc1", "class 0"],
  ["CCCCSc1ccc2n(C)c(-c3ccc(/C=N\\NC(=O)c4ccc(C(=O)N/N=C\\c5ccc(-c6c[n+]7cc(SCCCC)ccc7n6C)cc5)cc4)cc3)c[n+]2c1", "class 0"],
  ["COCc1onc(-c2ccc(OC)cc2)c1-c1ccc(OC)cc1", "class 0"],
  ["CCC(C(=O)O)C(=O)O.[NH-]CC1CCCC[N-]1.[Pt+2]", "class 0"],
  ["COc1cc(C2=N/C(=C\\c3cc(Br)cc(Br)c3O)C(=O)O2)cc(OC)c1OC", "class 1"],
  ["O=C(Cc1cc[n+]([O-])cc1)C(=O)Nc1cc(Cl)c(Cl)cc1Cl", "class 0"],
  ["CC/C(C)=N\\NC(=O)CC(=O)N/N=C(/C)CC", "class 0"],
  ["C/C=C/C(=O)OCCc1ccccc1", "class 0"],
  ["O=C(CO)c1ccc([N+](=O)[O-])cc1", "class 0"],
  ["CC(=O)Nc1cccc(C)n1", "class 0"],
  ["O=CNc1ccc(Br)cc1", "class 0"]
]}

----------
Assay: NCI Yeast Anticancer Drug Screen. Data for the mec2-1 strain (AID 157)
Details: S. cerevisiae mec2-1 strain, at 50.0 µM
This is part of a sample that, as a whole, favours compounds with a hit. Of some 79,000 tested, about 15% had one in any assay. The source made the active and inactive calls. No stated cut-off is given here; in the data, active means growth inhibition above about 70%; inactive means the rest.
Possible outcomes: YES = active, NO = inactive

{"columns": ["molecule", "cat"],
 "data": [
  ["O=C(CCc1n[nH]c(=S)o1)Nc1ccccc1", "NO"],
  ["COc1ccc(NC(=O)C2C(=O)N(c3ccc(OC)cc3)C(=O)/C2=N\\N)cc1 (stereo not given)", "NO"],
  ["O=C(O)/C=C\\C(=O)Nc1ccccc1", "NO"],
  ["Cc1cc(OC(=O)c2ccc(N)cc2)ccc1C1=NCC(C)S1 (stereo not given)", "NO"],
  ["CC(C)C(C(=O)O)C(=O)O", "NO"],
  ["C[C@@H]1C[C@H](C)OC(CO)O1 (stereo not given in full) (tested in a mixture with another compound)", "NO"],
  ["C/C(=N\\O)c1sc(-n2nc(-c3ccccc3)cc2-c2ccccc2)nc1C", "NO"],
  ["Nc1cccc2cccc(N)c12", "NO"],
  ["O=c1[nH]c(-c2ccccc2)c([N+](=O)[O-])c(=O)[nH]1", "NO"],
  ["Cc1ccc2c(c1)nc(N)n[n+]2[O-]", "NO"],
  ["Nc1nc2c(ncn2C2C=CC(CO)C2)c(=O)[nH]1 (stereo not given)", "NO"],
  ["O=C(NCc1ccco1)Nc1ccccc1", "NO"],
  ["CCCCN(CCCC)CC(O)c1cc(Cc2ccccc2)nc2c(Cl)cc(Cl)cc12 (stereo not given)", "YES"],
  ["Nc1[nH]c(=O)ncc1[N+](=O)[O-]", "NO"],
  ["Cc1nc(CC#N)n[nH]1", "NO"],
  ["COc1cc(C2c3cc4c(cc3OC(N3CCCCC3)C2C)OCO4)cc(OC)c1O (stereo not given)", "NO"],
  ["COc1ccc(C(=O)c2ccccc2)c(N)c1", "NO"],
  ["CC[P+](C)(Cc1ccccc1)c1ccccc1 (stereo not given)", "NO"],
  ["O=C1NC(c2ccco2)N2C(=O)NC(c3ccco3)N12 (stereo not given)", "NO"],
  ["CC(=O)CC(C)=Nc1ccc([N+](=O)[O-])cc1", "NO"],
  ["CCOC(=O)N1CCc2cc(OC)c(OC)c3c2c1cc1cc(OC)c(OC)cc13", "NO"],
  ["C=CCNC(=S)Nc1cccc(OC(=O)Nc2ccc(Cl)c(Cl)c2)c1", "NO"],
  ["C=CCNC(=S)/N=C/C(C(=O)Nc1ccccc1OC)=C(\\C)O", "NO"],
  ["Nc1cc(Nc2ccc(Cl)[nH]c2=S)nc(N)n1", "NO"],
  ["Cc1cc(C)cc(C(=O)NCc2ccc[n+]([O-])c2)c1", "NO"]
]}
